STUDY TARGET: human muscarinic M4 receptor (Homo sapiens)
Construct: expressed in transfected cells
ASSAY COMMENT: Alphascreen Surefire phospho-ERK1/2 functional assay, M4
Type: cell-based
CONDITION DETAILS: CHO cells stably expressing human M4; phospho-ERK1/2; * = variable results; read-out: pEC50 M4 (converted)
READOUT: EC50 (nM)
Give bare numbers, in nM.

| COMPOUND | READOUT | RECORDED NUMBER |
| --- | --- | --- |
| COC(=O)N1CCC2(CC(N3CCC([C@@H]4CCCN4c4ccccn4)CC3)C2)C1 (single isomer, unassigned) [2-78 Isomer 2] | EC50 | 126 |
| CCOC(=O)N1CCC2(CC(N3CCC([C@@H]4CCCN4c4ncccn4)CC3)C2)C1 (single isomer, unassigned) [2-81 Isomer 2] | EC50 | 63.1 |
| CCOC(=O)N1CCC2(CC(N3CCC(N4CCNC4=O)CC3)C2)C1 (single isomer, unassigned) [2-124 Isomer 2] | EC50 | 79.4 |
| CCOC(=O)N1CCC2(CC(N3CCC(N4CSC[C@@H]4C(=O)OC)CC3)C2)C1 (single isomer, unassigned) [2-97 Isomer 2] | EC50 | 39.8 |
| CCOC(=O)N1CCC2(CC(N3CCC([C@@H]4CCCN4C(=O)N4CC(F)(F)C4)CC3)C2)C1 (single isomer, unassigned) [2-39 Isomer 2] | EC50 | 15.8 |

// switching to the query compound
human muscarinic M4 receptor (Homo sapiens) EC50 of CCOC(=O)N1CCC2(CC(N3CCC(N4C[C@H](F)C[C@@H]4C(=O)OC)CC3)C2)C1 (single isomer, unassigned) [2-134 Isomer 2] is 63.1

---

Please go through the items and note down their EC50.
STUDY TARGET: human muscarinic M1 receptor (Homo sapiens)
Sequence (P11229 whole entry): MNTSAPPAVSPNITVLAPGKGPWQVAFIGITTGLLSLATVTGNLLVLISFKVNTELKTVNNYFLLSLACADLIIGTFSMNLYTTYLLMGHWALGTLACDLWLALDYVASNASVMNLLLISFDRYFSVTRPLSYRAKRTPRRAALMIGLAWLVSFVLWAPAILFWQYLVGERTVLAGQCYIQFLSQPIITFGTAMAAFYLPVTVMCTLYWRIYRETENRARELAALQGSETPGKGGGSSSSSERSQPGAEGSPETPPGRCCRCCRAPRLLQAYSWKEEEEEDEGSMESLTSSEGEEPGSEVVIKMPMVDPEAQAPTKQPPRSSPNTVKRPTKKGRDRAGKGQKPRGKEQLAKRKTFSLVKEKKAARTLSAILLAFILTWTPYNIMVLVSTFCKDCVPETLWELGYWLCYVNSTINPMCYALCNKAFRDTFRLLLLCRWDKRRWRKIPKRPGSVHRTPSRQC
ASSAY COMMENT: Alphascreen Surefire phospho-ERK1/2 functional assay, M1
Assay type: cell-based
CONDITION DETAILS: CHO cells stably expressing human M1; phospho-ERK1/2; * = variable results; read-out: pEC50 M1 (converted)

Example entries begin here.
| COMPOUND | EC50 |
| --- | --- |
| CCOC(=O)N1CCC2(CC(N3CCC(N4CCCCC4)CC3)C2)C1 (single isomer, unassigned) [4-10 Isomer 2] | > 20 µM |
| CCOC(=O)N1CCC2(CC(N3CCC(N4CC[C@H](F)C4)CC3)C2)C1 (single isomer, unassigned) [2-99 Isomer 2] | > 20 µM |

// switching to the query compound
Value of measured EC50 for the entry CCOC(=O)N1CCC2(CC(N3CCC(N4CCCC[C@@H]4C(=O)OC)CC3)C2)C1 (single isomer, unassigned) [4-15 Isomer 2] : 0.251 µM

---

STUDY TARGET: human muscarinic M4 receptor (Homo sapiens, UniProt P08173)
Construct: expressed in transfected cells
Sequence (P08173 whole entry): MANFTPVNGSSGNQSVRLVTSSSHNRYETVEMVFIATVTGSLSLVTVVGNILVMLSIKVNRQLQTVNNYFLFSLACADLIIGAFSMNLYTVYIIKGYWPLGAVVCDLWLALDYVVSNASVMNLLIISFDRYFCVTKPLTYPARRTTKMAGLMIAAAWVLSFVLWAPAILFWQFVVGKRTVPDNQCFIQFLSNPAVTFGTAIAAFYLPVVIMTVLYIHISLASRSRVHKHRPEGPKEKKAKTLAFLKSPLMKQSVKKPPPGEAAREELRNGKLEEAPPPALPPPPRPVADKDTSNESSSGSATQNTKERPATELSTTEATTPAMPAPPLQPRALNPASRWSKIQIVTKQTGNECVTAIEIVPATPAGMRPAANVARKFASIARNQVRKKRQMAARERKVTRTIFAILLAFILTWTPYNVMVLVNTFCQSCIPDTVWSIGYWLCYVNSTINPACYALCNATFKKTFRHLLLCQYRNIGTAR
ASSAY COMMENT: Alphascreen Surefire phospho-ERK1/2 functional assay, M4
Assay type: cell-based
CONDITION DETAILS: CHO cells stably expressing human M4; phospho-ERK1/2; * = variable results; read-out: pEC50 M4 (converted)
READOUT: EC50
Answer by giving the amount and then stating its unit.

| MOLECULE | EC50 |
| --- | --- |
| CCOC(=O)N1CCC2(CC(N3CCC([C@@H]4CCCN4c4nncs4)CC3)C2)C1 (single isomer, unassigned) [2-83 Isomer 2] | 10 nM |
| CCOC(=O)N1CCC2(CC(N3CCC([C@@H]4CCCN4C(=O)CC(F)(F)F)CC3)C2)C1 (single isomer, unassigned) [2-53 Isomer 2] | 7.94 nM |

// switching to the query molecule
Value of measured EC50 for the entry CCOC(=O)N1CCC2(CC(N3CCC([C@@H]4CCCN4CCC(F)(F)F)CC3)C2)C1 (single isomer, unassigned) [2-70 Isomer 2] : 31.6 nM
